FYI, the data here is from patent US9247741B2.

- Test system: Blumeria graminis Fsp. Hordei
- run_description: Barley powdery mildew (ERYSGH) disease control
- Type: in vivo
- condition_context: 24 h, 1 Day Protectant, read-out: ERYSGH disease control rating
For each record, write down the corresponding pest or weed control at 100 ppm.

Recorded pest or weed control at 100 ppm (compound "CCCC[C@H]1[C@H](C)OC(=O)[C@@H](NC(=O)c2nccc(OC)c2OCOC(C)=O)CCC[C@@H]1Oc1ccccc1" ): > 70%

Recorded pest or weed control at 100 ppm (compound "CCCO[C@H]1CCC[C@H](NC(=O)c2nccc(OC)c2OC(C)=O)C(=O)O[C@@H](C)[C@@H]1CCC(C)C" ): < 70%

Recorded pest or weed control at 100 ppm (compound "CCCO[C@H]1CCC[C@H](NC(=O)c2nccc(OC)c2OCOC(C)=O)C(=O)O[C@@H](C)[C@@H]1CCC(C)C" ): > 70%

Recorded pest or weed control at 100 ppm (compound "CCCC[C@H]1[C@H](C)OC(=O)[C@@H](NC(=O)c2nccc(OC)c2OCOC(C)=O)CCC[C@@H]1OCC1CC1" ): > 70%

Recorded pest or weed control at 100 ppm (compound "COc1ccnc(C(=O)N[C@H]2CCC[C@H](OCC3CC3)[C@@H](Cc3ccc(F)cc3)[C@H](C)OC2=O)c1OCOC(C)=O" ): < 70%

Recorded pest or weed control at 100 ppm (compound "COc1ccnc(C(=O)N[C@H]2CCC[C@H](Oc3ccccc3)[C@@H](CCC(C)C)[C@H](C)OC2=O)c1OCOC(C)=O" ): > 70%

Recorded pest or weed control at 100 ppm (compound "COc1ccnc(C(=O)N[C@H]2CCC[C@H](Oc3ccccc3)[C@@H](CCC(C)C)[C@H](C)OC2=O)c1OC(C)=O" ): > 70%

Recorded pest or weed control at 100 ppm (compound "CCCO[C@H]1CCC[C@H](NC(=O)c2nccc(OC)c2OC(C)=O)C(=O)O[C@@H](C)[C@@H]1Cc1ccccc1" ): < 70%
